Entries and their TGI values follow.
test system: MDA-MB-435; assay: NCI tumour cell line growth inhibition, 48 h
Return type: number; implicit unit µM.

Please review the following examples before continuing.
Clc1ccc(-c2nc3ccc(Cl)cc3[nH]2)cc1; 84.5
Cn1cc(-c2csc(-c3c[nH]c4ccc(F)cc34)n2)c2cccnc21; 0.586
COc1ccccc1/C=C/C(=O)c1ccc(Nc2nc(Nc3ccc(F)cc3)nc(Nc3ccc(F)cc3)n2)cc1; 90.7
COc1cc(C=C2c3ccccc3C(=O)c3ccccc32)ccc1OCCCCOc1cc2c(cc1OC)C(=O)N1CCCC1C=N2 (stereo unspecified); 0.601
O=[N+]([O-])c1ccc(NC(=S)N=Nc2c(O)[nH]c3ccccc23)cc1; 53.7

# input for lookup
Ask | Param readout= TGI; system= MDA-MB-435; entry= CCOC(=O)C(CC(C)C)NC(=O)C(Cc1ccc(N(CCCl)CCCl)cc1)NC(C)=O (stereo unspecified) ; returns value.
Reply | 11.5
